# ASSAYED_TARGET: influenza A virus (IAV) PA-Nter fragment (amino acids 1-209) (Influenza A virus, UniProt P31343)
ASSAY_READOUT: IC50 (nM)
Please give a number only; it is taken to be in nM.

Sample answers from the record:
1. O=C1c2c(O)c(=O)nc(CC3(c4cccc5ccccc45)CCCC3)n2CCN1Cc1ccccc1: 670
2. O=C1c2c(O)c(=O)nc(CC3(c4ccccc4)CCCC3)n2CCN1C1CC1: 98
3. O=C1c2c(O)c(=O)nc(CC3(c4cccc5ccccc45)CCCC3)n2CCN1C1CC1: 104

Looking up CC(C)N1CCn2c(Cc3ccccc3-c3ccncc3)nc(=O)c(O)c2C1=O , I see its IC50 listed as 94

Field IC50 (entry O=C1c2c(O)c(=O)nc(CC3(c4cccc5ccccc45)CCCC3)n2CCN1CC1CC1 ) reads 140

Lookup result for O=C1c2c(O)c(=O)nc(CC3(n4ccc5cccnc54)CCCC3)n2CCN1C1CCC1 ; measured IC50: 173

Measured IC50 of COc1ccc(-c2ccccc2Cc2nc(=O)c(O)c3n2CCN(C(C)C)C3=O)cc1 : 122

----------
# ASSAYED_TARGET: influenza A virus (IAV) PA-Nter fragment (amino acids 1-209) (Influenza A virus)
# Construct: PA-Nter fragment (amino acids 1-209); made in house
# ASSAY_SUMMARY: FRET endonuclease activity assay
# Assay type: biochemical
# CONDITION_SUMMARY: 0.5 μM PA-Nter, 1.6 μM dual-labelled RNA substrate; IC50 from initial reaction velocities (v0)
Friendly reminder: IC50 below 200 nM is criterion met, at or above is criterion not met.

Example results:
1) CC(C)N1CCn2c(CC(C)(C)n3ccc4ccccc43)nc(=O)c(O)c2C1=O: criterion not met
2) CC(C)N1CCn2c(Cc3ccccc3-c3ccc(F)cc3)nc(=O)c(O)c2C1=O: criterion not met
3) O=C1c2c(O)c(=O)nc(CC3(n4ccc5cccnc54)CCCC3)n2CCN1C1CC1: criterion met
4) CN1CCn2c(CC3(n4ccc5cccnc54)CCCC3)nc(=O)c(O)c2C1=O: criterion met
5) CC(C)N1CCn2c(Cc3c(Cl)cccc3Cl)nc(=O)c(O)c2C1=O [drawing 10]: criterion not met
6) CC(C)N1CCn2c(Cc3ccccc3-c3ccc(C#N)cc3)nc(=O)c(O)c2C1=O: criterion not met
7) CC(C)N1CCn2c(-c3ccccn3)nc(=O)c(O)c2C1=O: criterion not met
8) CC(C)N1CCn2c(Cc3ncccc3-c3ccccc3)nc(=O)c(O)c2C1=O: criterion not met

Dear reviewer, please state whether CC(C)N1CCn2c(CC3(n4ccc5cccnc54)CCCC3)nc(=O)c(O)c2C1=O has IC50 strictly beneath 200 nM.
criterion met

Consider O=C1c2c(O)c(=O)nc(CC3(c4ccccc4)CCCC3)n2CCN1C1CCC1 . Does its IC50 lie strictly below 200 nM?
criterion met

----------
# ASSAYED_TARGET: influenza A virus (IAV) PA-Nter fragment (amino acids 1-209) (Influenza A virus, UniProt P31343)
Each entry below carries its recorded IC50.
Write the answer as a number in nM, unit excluded.

Examples from the recorded data:
1. O=C1c2c(O)c(=O)nc(CC3(c4ccccc4)CCCC3)n2CCN1CC1CC1: 138
2. CN1CCn2c(CC3(c4cccc5ccccc45)CCCC3)nc(=O)c(O)c2C1=O: 110
3. CN1CCn2c(CC3(c4ccccn4)CCCC3)nc(=O)c(O)c2C1=O: 63
4. COc1ccc(-c2ccccc2)c(Cc2nc(=O)c(O)c3n2CCN(C(C)C)C3=O)c1: 430
5. CC(C)N1CCn2c(Cc3c(Cl)cccc3Cl)nc(=O)c(O)c2C1=O [drawing 18]: 390
6. CC(C)N1CCn2c([C@@H]3CCC[C@@H]3c3ccccc3)nc(=O)c(O)c2C1=O: 500
7. CC(C)N1CCn2c(Cc3ccc(Cl)cc3-c3ccc(F)cc3)nc(=O)c(O)c2C1=O: 436
8. O=C1c2c(O)c(=O)nc(CC3(c4cccc5ccccc45)CCCC3)n2CCN1C1CCOCC1: 110

CC(C)N1CCn2c(CC3(c4cc(C(F)(F)F)cc(C(F)(F)F)c4)CCCC3)nc(=O)c(O)c2C1=O has a reported IC50 of 318

The reported value for CC(c1ccccc1-c1ccccc1)c1nc(=O)c(O)c2n1CCN(C(C)C)C2=O (stereo not drawn) in terms of IC50 is 1700

Please fill in: IC50 reported for O=C1NCCn2c(CC3(c4cccc5ccccc45)CCCC3)nc(=O)c(O)c21 [drawing 712] = 162

Given item O=C1c2c(O)c(=O)nc(CC3(c4ccc(Cl)cc4)CCCC3)n2CCN1CC1CC1 , the value recorded as its IC50 is 205

In plain terms, CC(C)N1CCn2c(CC3(c4ccc(C(F)(F)F)cc4)CCCC3)nc(=O)c(O)c2C1=O has a documented IC50 of 262

Recorded IC50 (compound CN1CCn2c(Cc3ccccc3-c3ccccc3Cl)nc(=O)c(O)c2C1=O ): 175

The recorded IC50 for entry CC(C)N1CCn2c(Cc3ccc(Cl)cc3-c3cccc(F)c3)nc(=O)c(O)c2C1=O equals 58

The measured IC50 associated with CC(c1ccccc1)N1CCn2c(CC3(c4ccc(Cl)cc4)CCCC3)nc(=O)c(O)c2C1=O (stereo not drawn) reads 1130

For record CC(C)N1CCn2c(Cc3cscc3-c3ccccc3)nc(=O)c(O)c2C1=O the listed IC50 is 1390
